Measured Biodistribution: Heart, listed per entry for reference.
- System: NRG-mice bearing LNCaP tumors
- experiment: Biodistribution (and PET/SPECT imaging) in NRG-mice bearing LNCaP tumors
- Assay type: in vivo
- measurement-setup: 3 h p.i., Avg
*1 amine or outer side, *2 acyl side, *3 side chain or, on linkers, in order; H or OH if unused. Where a SMILES comes first, the peptide text is derived from it. [ ]: non-standard residue; d: D form. The star is where a group is joined. ξ: configuration not given here. ξLys(Nα-CO-ξAad) = O=C(O)CCCC(NC(=O)NC(CCCCN*)C(=O)O)C(=O)O; Butanoyl(4-(4-NO2Ph)) = O=C(CCCc1ccc([N+](=O)[O-])cc1)*; DOTA = O=C(O)CN1CCN(CC(=O)O)CCN(CC(=O)*)CCN(CC(=O)O)CC1; Butanoyl(4-(4-MeO-phenyl)) = COc1ccc(CCCC(=O)*)cc1; ξAla(9-anthryl) = NC(Cc1c2ccccc2cc2ccccc12)C(=O)O; X2 = O=C(NC(CCCCN*)C(=O)O)NC(CC(F)C(=O)O)C(=O)O; X1 = O=C(C1CCC(CN[*:1])CC1)[*:2]; ξK = NCCCCC(N)C(=O)O
Return type: number; implicit unit % ID/g.

# compound, recorded-metric, unit-tag, reported-result
rows = [
    ("COc1ccc(CCCC(=O)NCC(=O)NC(CCCCNC(=O)CN2CCN(CC(=O)[O-])CCN(CC(=O)[O-])CCN(CC(=O)[O-])CC2)CC(=O)NCC2CCC(C(=O)NC(Cc3c4ccccc4cc4ccccc34)C(=O)NCCCCC(NC(=O)NC(CC(F)C(=O)O)C(=O)O)C(=O)O)CC2)cc1.[177Lu+3] (stereo not drawn) [^177Lu-CCZ02019]", "Biodistribution: Heart", "% ID/g", 2.52),
]

# O=C([O-])CN1CCN(CC(=O)[O-])CCN(CC(=O)NCCCCC(NC(=O)CNC(=O)CCCc2ccc([N+](=O)[O-])cc2)C(=O)NCC(=O)NCC2CCC(C(=O)NC(Cc3c4ccccc4cc4ccccc34)C(=O)NCCCCC(NC(=O)NC(CC(F)C(=O)O)C(=O)O)C(=O)O)CC2)CCN(CC(=O)[O-])CC1.[68Ga+3] (stereo not drawn) [^68Ga-CCZ02025] ({Butanoyl(4-(4-NO2Ph))}-G[ξK](DOTA)G[X1][ξAla(9-anthryl)]-X2) with NRG-mice bearing LNCaP tumors: Biodistribution: Heart is 2.86

# O=C([O-])CN1CCN(CC(=O)[O-])CCN(CC(=O)NCCCCC(NC(=O)CNC(=O)CCCc2ccc([N+](=O)[O-])cc2)C(=O)NCC(=O)NCC2CCC(C(=O)NC(Cc3c4ccccc4cc4ccccc34)C(=O)NCCCCC(NC(=O)NC(CCCC(=O)O)C(=O)O)C(=O)O)CC2)CCN(CC(=O)[O-])CC1.[177Lu+3] (stereo not drawn) [^177Lu-CCZ02017] ({Butanoyl(4-(4-NO2Ph))}-G[ξK](DOTA)G[X1][ξAla(9-anthryl)]-{ξLys(Nα-CO-ξAad)}) with NRG-mice bearing LNCaP tumors: Biodistribution: Heart is 3.24

# O=C([O-])CN1CCN(CC(=O)[O-])CCN(CC(=O)NCCCCC(NC(=O)CNC(=O)CCCc2ccc([N+](=O)[O-])cc2)C(=O)NCC(=O)NCC2CCC(C(=O)NC(Cc3c4ccccc4cc4ccccc34)C(=O)NCCCCC(NC(=O)NC(CCCC(=O)O)C(=O)O)C(=O)O)CC2)CCN(CC(=O)[O-])CC1.[225Ac+3] (stereo not drawn) [^225Ac-CCZ02017] ({Butanoyl(4-(4-NO2Ph))}-G[ξK](DOTA)G[X1][ξAla(9-anthryl)]-{ξLys(Nα-CO-ξAad)}) with NRG-mice bearing LNCaP tumors: Biodistribution: Heart is 2.27

# COc1ccc(CCCC(=O)NCC(=O)NC(CCCCNC(=O)CN2CCN(CC(=O)[O-])CCN(CC(=O)[O-])CCN(CC(=O)[O-])CC2)CC(=O)NCC2CCC(C(=O)NC(Cc3c4ccccc4cc4ccccc34)C(=O)NCCCCC(NC(=O)NC(CCCC(=O)O)C(=O)O)C(=O)O)CC2)cc1.[68Ga+3] (stereo not drawn) [^68Ga-CCZ02015] with NRG-mice bearing LNCaP tumors: Biodistribution: Heart is 2.55

# COc1ccc(CCCC(=O)NCC(=O)NC(CCCCNC(=O)CN2CCN(CC(=O)[O-])CCN(CC(=O)[O-])CCN(CC(=O)[O-])CC2)C(=O)NCC(=O)NCC2CCC(C(=O)NC(Cc3c4ccccc4cc4ccccc34)C(=O)NCCCCC(NC(=O)NC(CCCC(=O)O)C(=O)O)C(=O)O)CC2)cc1.[68Ga+3] (stereo not drawn) [^68Ga-CCZ02009] ({Butanoyl(4-(4-MeO-phenyl))}-G[ξK](DOTA)G[X1][ξAla(9-anthryl)]-{ξLys(Nα-CO-ξAad)}) with NRG-mice bearing LNCaP tumors: Biodistribution: Heart is 3.76
